# PROTOCOL SUMMARY: NCI Yeast Anticancer Drug Screen. Data for the rad14 strain (AID 159);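 further: 0% = growth of vehicle-treated control cultures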
# MEASUREMENT CONDITIONS: S. cerevisiae rad14 strain growth inhibition; at 3.7 µM; hits give high values
The panel holds about 79,000 compounds, 15% with a hit somewhere; the sample as a whole holds those more often.
PARAMETER: growth inhibition (%)
Answers are plain numbers, in %.

[
  {
    "MOLECULE": "N#C/C(=C\\c1ccccc1)c1ccccc1F",
    "SCALE UNIT": "%",
    "QUANTITATIVE RESULT": -1
  },
  {
    "MOLECULE": "O=C1NC(c2c(Cl)cccc2Cl)Nc2ccccc21 (configuration not stated)",
    "SCALE UNIT": "%",
    "QUANTITATIVE RESULT": -32
  },
  {
    "MOLECULE": "CC(=O)O[C@H]1C(=O)[C@@]2(C)[C@H]([C@H](OC(=O)c3ccccc3)[C@]3(O)C[C@H](OC(=O)[C@H](O)[C@@H](NC(=O)c4ccccc4)c4ccccc4)C(C)=C1C3(C)C)[C@]1(OC(C)=O)CO[C@@H]1C[C@@H]2O",
    "SCALE UNIT": "%",
    "QUANTITATIVE RESULT": -2
  }
]

Need growth inhibition for each of these molecules.
1. C=C(C)[C@@H]1CCc2c(O)c(O)c(=O)cc(C)c2C1
2. COc1ccc(N=Nc2ccc3oc(=O)c(C(=O)Nc4ccccc4)cc3c2)cc1
3. O=C(O)c1cccc2cccc(-c3c4ccc(=O)cc-4oc4cc(O)ccc34)c12
4. C(=N/NC1=NCCN1)/c1c2ccccc2c(/C=N\NC2=NCCN2)c2ccccc12
5. NCc1c(O)ccc2ccccc12
6. COc1cc2c(cc1C[N+](C)(C)CSc1ccccc1)-c1ccccc1CC2

Solution:
-14
25
13
-25
5
-10
